Source of measurements: the supplement of paper PMC9112550

Test system: Escherichia coli TOP10;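 also: peptides expressed intracellularly from a pBAD plasmid library in pooled LB shake-flask culture, induced with 0.3% L-arabinose, DNA abundance read by NGS, three biological replicates, DESeq2 with apeglm shrinkage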
assay-summary: shrunken log2 fold change of peptide-encoding DNA abundance (4.5 h post-induction vs induction); higher = less antimicrobial activity (less host growth inhibition)
test-parameters: time post-induction: 4.5 h; library: site-saturation at positions 5, 18, 19, 20
observable: shrunken log2 fold change

// below: answered sequences
RRIRYRPPRLPRPRPRPRSGPRP | -0.0667
RRIRDRPPRLPRPRPRPSTSPRP | -0.115
RRIRDRPPRLPRPRPRPHVEPRP | -0.109

For each listed entry, give its shrunken log2 fold change.
1. RRIRNRPPRLPRPRPRPYTYPRP
2. RRIRLRPPRLPRPRPRPVTWPRP
3. RRIRIRPPRLPRPRPRPETKPRP
4. RRIRIRPPRLPRPRPRPFILPRP
5. RRIRQRPPRLPRPRPRPQCDPRP
6. RRIRSRPPRLPRPRPRPGGEPRP
7. RRIRGRPPRLPRPRPRPSMVPRP
8. RRIRARPPRLPRPRPRPNFYPRP

Outgoing:
1: -0.68; 2: -0.0276; 3: 0.0233; 4: -0.275; 5: -0.146; 6: 0.585; 7: 0.512; 8: 0.0801
